Method: Pharmacokinetics after a single oral dose in rats
Format: in vivo
Experimental parameters: male, Sprague-Dawley; rat, po 10.5 mg/kg, 10% DMSO/10% cremophor/80% SWFI, plasma
Endpoint label: Tmax (h)

1. COCc1nn(Cc2ccc(Cn3ccccc3=O)cc2)cc1C(=O)NCc1nccc(OC)c1F [Example 41 of WO2016/083820] :: 3

----------
Measured target: trypsin
Method: Enzyme selectivity, trypsin
Experimental parameters: substrate at Km concentration
Endpoint label: IC50

1. COc1ccnc(CNC(=O)c2cn(Cc3ccc(Cn4ccccc4=O)cc3)nc2C(F)(F)F)c1F :: > 40 µM

----------
Measured target: Human FXIa (Homo sapiens, UniProt P03951)
Sequence (P03951 388-625 limits assumed): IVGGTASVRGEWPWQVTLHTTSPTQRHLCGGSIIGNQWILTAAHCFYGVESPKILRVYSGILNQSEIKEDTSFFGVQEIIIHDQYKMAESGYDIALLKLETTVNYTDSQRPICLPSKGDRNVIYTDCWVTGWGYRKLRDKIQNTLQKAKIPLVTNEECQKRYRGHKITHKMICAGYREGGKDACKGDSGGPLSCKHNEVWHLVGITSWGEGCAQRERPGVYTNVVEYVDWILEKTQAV
Sequence (P03951 19-387 partner limits assumed): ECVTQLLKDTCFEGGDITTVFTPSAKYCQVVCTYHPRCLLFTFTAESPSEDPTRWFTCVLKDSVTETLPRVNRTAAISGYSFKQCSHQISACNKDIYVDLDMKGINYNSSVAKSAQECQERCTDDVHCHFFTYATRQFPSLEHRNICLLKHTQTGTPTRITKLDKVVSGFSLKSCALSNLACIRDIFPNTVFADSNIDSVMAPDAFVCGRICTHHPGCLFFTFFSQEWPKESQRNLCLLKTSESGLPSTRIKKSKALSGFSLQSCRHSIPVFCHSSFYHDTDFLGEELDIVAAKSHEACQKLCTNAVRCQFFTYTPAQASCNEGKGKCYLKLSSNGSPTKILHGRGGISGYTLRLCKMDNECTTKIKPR
Endpoint label: IC50

1. COCc1nn(Cc2ccc(Cn3ccccc3=O)cc2)cc1C(=O)NCc1nccc(OC)c1F :: > 40 µM
